IC50 tested on Human factor D (Homo sapiens (Human)): recorded values
Sequence (P00746 26-253): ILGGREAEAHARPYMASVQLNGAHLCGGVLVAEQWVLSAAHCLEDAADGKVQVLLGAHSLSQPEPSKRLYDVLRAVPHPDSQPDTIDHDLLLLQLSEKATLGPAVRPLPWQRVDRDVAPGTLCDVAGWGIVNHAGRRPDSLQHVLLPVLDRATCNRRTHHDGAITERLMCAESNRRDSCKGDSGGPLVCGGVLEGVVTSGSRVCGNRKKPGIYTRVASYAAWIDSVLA

Please review the entries below; each comes with its answer.
1. CC(=O)c1cn(CC(=O)N2C[C@H](F)C[C@H]2C(=O)NCc2cccc(Cl)c2F)c2ccc(C#Cc3cnsc3)cc12; < 1 µM
2. NC(=O)c1nn(CC(=O)N2C[C@H](F)C[C@H]2C(=O)Nc2cncc(-c3ccccc3Cl)n2)c2ccc(C#Cc3ncc(F)cn3)cc12; < 1 µM

Now take the following molecule into account.
# input # query: IC50 of entry NC(=O)c1nn(CC(=O)N2C[C@H](F)C[C@H]2C(=O)Nc2cccc(-c3ccccc3Cl)c2F)c2ccc(C#Cc3ncc(F)cn3)cc12
# output < 1 µM
